Each entry below lists one item and its recorded melting point value.

Worked examples follow.
Quick note, melting point for CN1CCN(c2cc(Cl)cc3c2S(=O)(=O)N(Cc2ccc(Cl)cc2)C(=O)N3Cc2ccccc2)CC1 landed at 99 to 100 °C

Reported melting point for O=C1N(Cc2ccccc2)c2cc(Cl)cc(N3CCNCC3)c2S(=O)(=O)N1c1ccccc1 was 275 to 277 °C

The measured melting point associated with CN1CCN(c2cc(Cl)cc3c2S(=O)(=O)N(Cc2ccncc2)C(=O)N3Cc2ccccc2)CC1 reads 107 to 108 °C

New cases:
Given item CN1CCN(c2cc(Cl)cc3c2S(=O)(=O)N(Cc2ccccc2F)C(=O)N3Cc2ccccc2)CC1 , the value recorded as its melting point is 118 to 120 °C

Record summary for CN1CCN(c2cc(Cl)cc3c2S(=O)(=O)N(Cc2cccc([N+](=O)[O-])c2)C(=O)N3Cc2ccccc2)CC1 : reported melting point = 172 to 175 °C

Lookup result for CN1CCN(c2cc(Cl)cc3c2S(=O)(=O)N(CC2CCCCC2)C(=O)N3Cc2ccccc2)CC1 ; measured melting point: 155 to 158 °C

Looking up Cc1ccc(CN2C(=O)N(Cc3ccccc3)c3cc(Cl)cc(N4CCN(C)CC4)c3S2(=O)=O)o1 , I see its melting point listed as 130 to 131 °C
